# TEST: 1st phase clinical test: pharmacokinetics of petasin in serum after single oral administration of tablets containing butterbur extract (open crossover; enzyme immunoassay)
# Assay type: in vivo, human (clinically healthy men)
# TEST_PARAMETERS: male, human, serum, oral, 4 tablets, after administering 4 tablets; 0.25 h p.a.; read-out: Petasin serum concentration Min.
VALUE_KIND: concentration at 0.25 h (ng/mL)

compound="C=C(C)C1CC2(C)C(=CC1=O)CCC(OC(=O)/C(C)=C\\C)C2C (stereo not shown)" value_kind="concentration at 0.25 h" reading_unit=ng/mL meas_value=1

---

# TEST: 1st phase clinical test: pharmacokinetics of petasin in serum after single oral administration of tablets containing butterbur extract (open crossover; enzyme immunoassay)
# Assay type: in vivo, human (clinically healthy men)
# TEST_PARAMETERS: male, human, serum; 2 tablets, single oral; mean ± SD
VALUE_KIND: Tmax (h)

compound="C=C(C)C1CC2(C)C(=CC1=O)CCC(OC(=O)/C(C)=C\\C)C2C (stereo not shown)" meas_value=1.62

---

# TEST: 1st phase clinical test: pharmacokinetics of petasin in serum after single oral administration of tablets containing butterbur extract (open crossover; enzyme immunoassay)
# Type: in vivo, human (clinically healthy men)
# TEST_PARAMETERS: male, human, serum, oral, 4 tablets, after administering 4 tablets; 1.5 h p.a.; read-out: Petasin serum concentration Mean
VALUE_KIND: concentration at 1.5 h

compound="C=C(C)C1CC2(C)C(=CC1=O)CCC(OC(=O)/C(C)=C\\C)C2C (stereo not shown) [petasin]" value_kind="concentration at 1.5 h" meas_value="40.8 ng/mL"

---

# TEST: 1st phase clinical test: pharmacokinetics of petasin in serum after single oral administration of tablets containing butterbur extract (open crossover; enzyme immunoassay)
# Assay type: in vivo, human (clinically healthy men)
# TEST_PARAMETERS: male, human, serum, oral, 4 tablets, after administering 4 tablets; 0.75 h p.a.; read-out: Petasin serum concentration Min.
VALUE_KIND: concentration at 0.75 h (ng/mL)

compound="C=C(C)C1CC2(C)C(=CC1=O)CCC(OC(=O)/C(C)=C\\C)C2C (stereo not shown)" meas_value=2.5

---

# TEST: 1st phase clinical test: pharmacokinetics of petasin in serum after single oral administration of tablets containing butterbur extract (open crossover; enzyme immunoassay)
# Format: in vivo, human (clinically healthy men)
# TEST_PARAMETERS: male, human, serum, oral, 2 tablets, after administering 2 tablets; 4 h p.a.; read-out: Petasin serum concentration Min.
VALUE_KIND: concentration at 4 h (ng/mL)

compound="C=C(C)C1CC2(C)C(=CC1=O)CCC(OC(=O)/C(C)=C\\C)C2C (stereo not shown)" reading_unit=ng/mL meas_value=1.7

---

# TEST: 1st phase clinical test: pharmacokinetics of petasin in serum after single oral administration of tablets containing butterbur extract (open crossover; enzyme immunoassay)
# Type: in vivo, human (clinically healthy men)
# TEST_PARAMETERS: male, human, serum, oral, 4 tablets, after administering 4 tablets; 0.75 h p.a.; read-out: Petasin serum concentration Mean
VALUE_KIND: concentration at 0.75 h (ng/mL)

compound="C=C(C)C1CC2(C)C(=CC1=O)CCC(OC(=O)/C(C)=C\\C)C2C (stereo not shown)" meas_value=28.7

---

# TEST: 1st phase clinical test: pharmacokinetics of petasin in serum after single oral administration of tablets containing butterbur extract (open crossover; enzyme immunoassay)
# Format: in vivo, human (clinically healthy men)
# TEST_PARAMETERS: male, human, serum, oral, 2 tablets, after administering 2 tablets; 2.5 h p.a.; read-out: Petasin serum concentration Median
VALUE_KIND: concentration at 2.5 h

compound="C=C(C)C1CC2(C)C(=CC1=O)CCC(OC(=O)/C(C)=C\\C)C2C (stereo not shown)" value_kind="concentration at 2.5 h" meas_value="10.2 ng/mL"

Each recorded value in this set is attributed to patent US20050042701A1.
